Please respond with reported normalized growth for every item in the list.
experiment: chemical genetic growth profiling, strain panel (AID 1159580);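 further: tested at 20 µM; growth read once vehicle control cultures reached saturation at 30 °C; 1 = growth at the plate median or of vehicle wells; lower values mean less growth of the strain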; conditions: S. cerevisiae deletion strains, growth OD, locus YMR223W, strain ubp8, active compounds read low
Out of some 5,500 compounds screened, about 2,000 (36%) were called active. Not shown: some 18% with an inconclusive outcome. The list shows a part of the results.

Looking for the measured normalized growth of COC(=O)CC1C2(C)CC34OC5(C)OC6(C7/C(=C(/O)C(C)C)C(=O)OC(c8ccoc8)C7(C)C(OC(=O)C(C)C)C(OC)C6(O5)C13C)C(OC)C4(OC)C2OC(C)=O (configuration not stated) , can you help?
0.994 (inactive)

// returns reported normalized growth for input "Nc1nc(=S)c2[nH]cnc2[nH]1"
0.985 (inactive)

Need normalized growth of CCC(C)C(=O)O[C@@H]1C[C@@]2(C)[C@H](c3ccoc3)OC(=O)CC23OC2(C)O[C@]14[C@]1(C)[C@@H](CC(=O)OC)C5(C)CC1(O)[C@](O)(C5OC(=O)C1(C)OC1C)[C@@H](OC(C)=O)[C@]34O2 (some centres not stated) , thanks.
1.02 (inactive)

Give the measured normalized growth of CCC(C)C(=O)O[C@@H]1C[C@@]2(C)[C@H](c3ccoc3)OC(=O)CC23OC2(C)OC34[C@H](OC(=O)C(C)C)[C@@]3(O)[C@@H](OC(=O)C5(C)OC5C)[C@@]5(C)C[C@]3(O)[C@@](C)([C@H]5CC(=O)OC)C14O2 (some centres not stated) .
1.01 (inactive)

Given "Cc1[nH]c2ccccc2c1CN(C)C" , state its recorded normalized growth.
0.977 (inactive)

What value of normalized growth has been reported for the following molecule? CCCCCCC(C)OC(=O)COc1cc(Cl)c(Cl)cc1Cl (configuration not stated)
0.99 (inactive)

// query normalized growth value for entry NCCC(O)C(=O)NC1CC(N)C(OC2OC(CN)C(O)C(O)C2N)C(OC2OC(CO)C(O)C2O)C1O (configuration not stated)
0.995 (inactive)

Form field: reported normalized growth of CC(=O)O[C@H]1C[C@@H](OC(C)=O)C(C)(C)C2CC(=O)[C@]3(C)C(CC[C@@]4(C)[C@H](C(=O)O)OC(=O)C5OC543)[C@]21C (some centres not stated)
0.993 (inactive)

// returns reported normalized growth for input CCC(C)C(=O)OC1CC2(C)C(c3ccoc3)OC(=O)CC23OC2(C)OC34C(OC(=O)C(C)C)C3(O)C(OC(=O)C5(C)OC5C)C5(C)CC3(O)C(C)(C5C(=O)OC)C14O2 (configuration not stated)
0.999 (inactive)

// normalized growth lookup, key: COC(=O)C[C@H]1C2(C)CC34OC5(C)O[C@@]6([C@H](OC)C(OC(=O)C(C)C)[C@]7(C)C(/C(=C(/OC)C(C)C)C(=O)O[C@H]7c7ccoc7)[C@@]6(O5)[C@H](OC)[C@@]3(OC)C2OC(C)=O)[C@]14C (some centres not stated)
1.01 (inactive)

Entry under review: CCC1(O)CC(OC2CC(N(C)C)C(OC3CC(O)C(OC4CCC(=O)C(C)O4)C(C)O3)C(C)O2)c2c(cc3c(c2O)C(=O)c2c(O)cccc2C3=O)C1C(=O)OC (configuration not stated) . Reported normalized growth?
1 (inactive)

Which normalized growth reading was recorded for the molecule "CC[C@H]1OC(=O)[C@H](C)[C@@H](O[C@H]2C[C@@](C)(OC)[C@@H](O)[C@H](C)O2)[C@H](C)[C@@H](O[C@@H]2O[C@H](C)C[C@H](N(C)C)[C@H]2O)[C@](C)(OC)C[C@@H](C)C(=O)[C@H](C)[C@@H](O)[C@]1(C)O" ?
0.998 (inactive)

====

assay: chemical genetic growth profiling, strain panel (AID 1159580);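 further: tested at 20 µM; growth read once vehicle control cultures reached saturation at 30 °C; 1 = growth at the plate median or of vehicle wells; lower values mean less growth of the strain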; settings: S. cerevisiae deletion strains, growth OD, locus YCR088W, strain abp1, active compounds read low
Among all 5,500 compounds or so, about 2,000 (36%) were called active. Roughly 18% stayed inconclusive and do not appear here. The list shows a part of the results.
observation type: normalized growth
Respond with the number and no other words.

Given the compound COc1ccc(OC)c(C(O)CNC(=O)CN)c1 (centres undefined) , what is its reported normalized growth?
0.996

Look up normalized growth for this compound: CC(C)NCC(O)COc1cccc2[nH]ccc12 (centres undefined)
0.983

GET /values?readout=normalized growth&item= "CC[C@@]1(O)C[C@H](O[C@H]2C[C@H](N(C)C)[C@H](O)[C@H](C)O2)c2c(cc3c(c2O)C(=O)c2c(O)ccc(O)c2C3=O)[C@H]1C(=O)OC"
0.954

Value lookup for normalized growth; key = "CN(C)CCN(Cc1cccs1)c1ccccn1"
1.01

Need normalized growth of "CCN(CC)Cc1ccc(Nc2ccnc3cc(Cl)ccc23)cc1O" , thanks.
1.03

Value lookup for normalized growth; key = "CC(=O)Oc1cc(OC(C)=O)c2c(c1)O[C@H](c1ccc(OC(C)=O)c(OC(C)=O)c1)[C@@H](OC(C)=O)C2"
1

I'd like to know its normalized growth. The compound in question is "CC[C@@]1(O)C[C@H](O)c2c(cc3c(c2O)C(=O)c2c(O)ccc(O)c2C3=O)[C@H]1C(=O)OC"
0.963

Given the compound N=c1ccn2c(n1)OC1C(O)C(CO)OC12 (centres undefined) , what is its reported normalized growth?
1.01

Suppose we examine the compound "CC[C@@]1(O)C[C@H](O[C@H]2C[C@H](N(C)C)[C@H](O)[C@H](C)O2)c2c(cc3c(c2O)C(=O)c2c(O)cccc2C3=O)[C@H]1C(=O)OC" ; what normalized growth value has been reported?
0.946

Give the measured normalized growth of "COC(=O)/C=C/C(C)=C/C=C/C(C)=C/C=C/C=C(C)/C=C/C=C(C)/C=C/C(=O)O" .
1.02

Using the record for CC1(O)CC2C(CC1O)C2(C)C (centres undefined) , report its normalized growth.
0.997

Any idea what normalized growth was measured for "CN(C)CCN(Cc1ccccc1)c1ccccn1" ?
0.997

Which normalized growth is reported for this compound? "CCC[C@H](N[C@@H](C)C(=O)N1[C@H](C(=O)O)C[C@@H]2CCCC[C@@H]21)C(=O)OCC"
1.02

Any idea what its normalized growth is? The compound is "O=C(Oc1cc(O)cc2c1C[C@@H](OC(=O)c1cc(O)c(O)c(O)c1)[C@@H](c1cc(O)c(O)c(O)c1)O2)c1cc(O)c(O)c(O)c1"
0.992

Requested read-out: normalized growth. Entry: "NS(=O)(=O)c1cc2c(cc1Cl)NC=NS2(=O)=O"
0.995

Could you tell me which normalized growth is on file for CC[C@]1(O)CC2CN(CCc3c([nH]c4ccccc34)[C@@](C(=O)OC)(c3cc4c(cc3OC)N(C)[C@H]3[C@@](O)(C(=O)OC)[C@H](OC(C)=O)[C@]5(CC)C=CCN6CC[C@]43[C@@H]65)C2)C1 (some centres undefined) ?
0.974

I have this compound here, C[C@@H]1CC(Cl)CC[C@H]1C(=O)OC(C)(C)C (some centres undefined) , and I need its recorded normalized growth.
0.987

Find the recorded normalized growth belonging to "COc1cc(CNC(=O)CCCC/C=C/C(C)C)ccc1O" and report it.
0.964

Value lookup for normalized growth; key = COC(=O)C1=COC(OC2OC(CO)C(O)C(O)C2O)C2C(C)CC(=O)C12 (centres undefined)
1.03

Request the reported normalized growth associated with "Oc1cc(O)c2c(c1)O[C@H](c1cc(O)c(O)c(O)c1)[C@H](O)C2"
1.02

Query (compound): "O=C(O[C@@H]1Cc2c(O)cc(O)cc2O[C@@H]1c1cc(O)c(O)c(O)c1)c1cc(O)c(O)c(O)c1" ; field requested: normalized growth
1.01

Which normalized growth value is on record for "C[n+]1c2cc(N)ccc2cc2ccc(N)cc21" ?
0.55

Dear colleague, I am looking for the recorded normalized growth of the following compound: "CC1(C)S[C@@H]2[C@H](NC(=O)[C@H](N)c3ccccc3)C(=O)N2[C@H]1C(=O)O"
0.975

// query normalized growth value for entry "CC[C@@H]1C=C/C=C/C[C@H](C)[C@@H](O)[C@](C)(O)C(=O)[C@H](C)[C@@H](O)[C@H](C)C(=O)[C@H](C)[C@@H](O)[C@H](C)/C=C/C(=O)O[C@H]2[C@@H](C)[C@@H](CC1)O[C@@]1(CC[C@@H](C)[C@@H](C[C@H](C)O)O1)[C@@H]2C"
1.02

Param item = "NCCc1cnc[nH]1" ; retrieve measured normalized growth.
1.01

Fill in the blank: the reported normalized growth of CN1C2CCC1CC(OC(c1ccccc1)c1ccccc1)C2 (centres undefined) is ____.
0.998

For the compound "Oc1cc(O)c2c(c1)O[C@H](c1ccc(O)c(O)c1)[C@@H](O)C2" , what normalized growth is on record?
1.01

Any idea what its normalized growth is? The compound is "COc1ccc(CN(CCN(C)C)c2ccccn2)cc1"
1.02

# query: normalized growth of entry "Nc1nc(=S)c2[nH]cnc2[nH]1"
0.98

What value of measured normalized growth is listed for "Cc1[nH]c2ccccc2c1CN(C)C" ?
1.02

Look at this compound and give its reported normalized growth. "CC(=O)Oc1cc(OC(C)=O)c2c(c1)O[C@H](c1ccc(OC(C)=O)c(OC(C)=O)c1)[C@H](OC(C)=O)C2"
1

So what does the record say about normalized growth for CCCCC/C=C/CCC(=O)N[C@H]1[C@H](Oc2c3cc4cc2Oc2ccc(cc2Cl)[C@@H](O[C@@H]2O[C@H](CO)[C@@H](O)[C@H](O)[C@H]2NC(C)=O)[C@@H]2NC(=O)[C@H](NC(=O)[C@@H]4NC(=O)[C@H]4NC(=O)C(Cc5ccc(c(Cl)c5)O3)NC(=O)[C@H](N)c3ccc(O)c(c3)Oc3cc(O)cc4c3)c3ccc(O)c(c3)-c3c(OC4O[C@H](CO)[C@@H](O)[C@H](O)[C@@H]4O)cc(O)cc3[C@@H](C(=O)O)NC2=O)O[C@H](CO)[C@@H](O)[C@@H]1O (some centres undefined) ?
1.01

Can you share its normalized growth? I mean this compound: "CCN(CC)C(=O)N1CCN(C)CC1"
0.994

Name the recorded normalized growth for "O=C(Oc1cc(OC(=O)c2ccccc2)c2c(c1)O[C@H](c1ccc(OC(=O)c3ccccc3)c(OC(=O)c3ccccc3)c1)[C@@H](OC(=O)c1ccccc1)C2)c1ccccc1" .
0.993
